# Test system: Plasmodium berghei
# Protocol: Screen against P. berghei liver stage (PbLuc), transformed with Luciferase, at 10uM
# Type: functional, HepG2
# Condition context: tested at 10 uM
Among all 69,000 compounds or so, about 8,600 (12%) showed an effect of 50% or more. The full list was thinned out, with strong results kept by preference.
So basically: INHIBITION at 10% or higher? That is yes (1). Lower than 10%? That is no (0).

Known results for compounds:
compound="Cc1nnc(NC(=O)NCC(C)N2CCOCC2)s1 (centres undefined)" group_label="no (0)"
compound=COCCn1ccc(NC(=O)Nc2cccnc2)n1 group_label="yes (1)"
compound=CSc1ccccc1NC(=O)c1ccc(N2CCOCC2)nn1 group_label="no (0)"

Check this compound for INHIBITION at or above 10%: `Cc1cnc(NC(=O)N2CCCCCC2)s1`
no (0)
